Origin of the recorded values: paper PMC11129349

# tgt: glutaminyl cyclase (QC; human recombinant glutaminyl peptide cyclotransferase) (Homo sapiens)
# Sequence (Q16769 29-361): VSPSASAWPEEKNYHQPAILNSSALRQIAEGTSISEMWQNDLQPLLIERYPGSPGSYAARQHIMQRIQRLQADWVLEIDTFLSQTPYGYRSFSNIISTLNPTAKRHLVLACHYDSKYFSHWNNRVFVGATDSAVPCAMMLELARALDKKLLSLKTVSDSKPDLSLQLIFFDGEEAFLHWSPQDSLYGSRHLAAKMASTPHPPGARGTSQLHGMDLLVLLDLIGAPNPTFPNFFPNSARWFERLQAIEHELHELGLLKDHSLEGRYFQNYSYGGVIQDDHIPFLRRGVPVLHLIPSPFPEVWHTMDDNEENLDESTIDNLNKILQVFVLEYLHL
# assay-explanation: PGPEP1-coupled fluorescence assay with H-Gln-AMC substrate, recombinant human QC
measure: pIC50
Schema: pIC50 number; meaning minus log10 of the concentration expressed in molar units.

What measured pIC50 goes with O=C1NC[C@H](c2ccc(OCCCF)cc2)N1c1ccc2[nH]cnc2c1 [compound 8, S-[19F]PB0822] ?
7.25
